These entries and their values trace back to patent US4450269A.

test system: Phytophthora infestans; type: cell-based; settings: PI, 2.5 ppm, 48 hours
Observable: Spore Germination Rating

Here are 5 compounds together with their reported answers.
| Smiles representation | Spore Germination Rating |
| --- | --- |
| CC(=O)Nc1ccc(Oc2nsnc(Cl)c2=O)cc1 | 4 (80-100) |
| COc1ccc(Cl)c(Oc2nsnc(Cl)c2=O)c1 | 3 (60-80) |
| O=c1c(Cl)nsnc1Oc1ccc(Cl)c(Cl)c1 | 0 (0-10) |
| CC(=O)Nc1ccccc1Oc1nsnc(Cl)c1=O | 4 (80-100) |
| O=c1c(Cl)nsnc1Oc1ccccc1Br | 1 (10-40) |

Next:
Ask: Please report the measured Spore Germination Rating for CC(=O)c1ccccc1Oc1nsnc(Cl)c1=O
Result: 1 (10-40)

---

Parameter inhibition at 40 ppm: see the listing below.
tested on: Cladosporium cucumerinum; assay: Mycelial growth test; assay type: cell-based; conditions: Cladosporium cucumerinum, 72 h, CC, 40 ppm, read-out: Percent Fungus Growth Inhibition
State the answer as a number, implicitly in %.

| Compound | inhibition at 40 ppm, % |
| --- | --- |
| Cc1cc(Cl)ccc1Oc1nsnc(Cl)c1=O | 28 |
| O=c1c(Cl)nsnc1Oc1cc(Cl)cc(Cl)c1 | 100 |
| COc1ccc(Cl)c(Oc2nsnc(Cl)c2=O)c1 | 100 |

Ask: Report value: inhibition at 40 ppm, system: Cladosporium cucumerinum, compound: O=c1c(Cl)nsnc1Oc1cccc2ccccc12
Result: 100

Ask: Report value: inhibition at 40 ppm, system: Cladosporium cucumerinum, compound: O=c1c(Cl)nsnc1Oc1ccc(O)cc1
Result: 92

Ask: Report value: inhibition at 40 ppm, system: Cladosporium cucumerinum, compound: O=c1c(Cl)nsnc1Oc1ccc(Br)cc1
Result: 100

Ask: Report value: inhibition at 40 ppm, system: Cladosporium cucumerinum, compound: CC(=O)c1ccccc1Oc1nsnc(Cl)c1=O
Result: 64

Ask: Report value: inhibition at 40 ppm, system: Cladosporium cucumerinum, compound: C[S+]([O-])c1ccc(Oc2nsnc(Cl)c2=O)cc1 (centres unmarked)
Result: 48

Ask: Report value: inhibition at 40 ppm, system: Cladosporium cucumerinum, compound: O=c1c(Cl)nsnc1Oc1c(Cl)cccc1Cl
Result: 100

Ask: Report value: inhibition at 40 ppm, system: Cladosporium cucumerinum, compound: Cc1cc(Oc2nsnc(Cl)c2=O)cc(C)c1Br
Result: 47

Ask: Report value: inhibition at 40 ppm, system: Cladosporium cucumerinum, compound: Cc1ccc(Oc2nsnc(Cl)c2=O)c(C)c1
Result: 100

---

tested on: Uromyces phaseoli; test: whole plant or invertebrate; details: foliar, 24 h, read-out: Percent Disease Control, curative, bean rust
Parameter pest or weed control at 150 ppm: see the listing below.
Your reply should be a number followed by the unit it is expressed in.

Here are 4 compounds together with their reported answers.
| Smiles representation | Experimental target | pest or weed control at 150 ppm |
| --- | --- | --- |
| Cc1ccc(Oc2nsnc(Cl)c2=O)c(C)c1 | Uromyces phaseoli | 0% |
| CCOC(=O)c1ccc(Oc2nsnc(Cl)c2=O)cc1 | Uromyces phaseoli | 0% |
| CCCCOc1ccc(Oc2nsnc(Cl)c2=O)cc1 | Uromyces phaseoli | 90% |
| Cc1ccc(Oc2nsnc(Cl)c2=O)cc1 | Uromyces phaseoli | 0% |

Ask: Please report the measured pest or weed control at 150 ppm for Nc1ccc(Oc2nsnc(Cl)c2=O)cc1
Result: 0%

Ask: Please report the measured pest or weed control at 150 ppm for CC(=O)c1ccc(Oc2nsnc(Cl)c2=O)cc1
Result: 0%
